- Study Target: rat histamine H3 receptor (Rattus norvegicus, UniProt Q9QYN8)
- Construct: encoding the entire 445-amino-acid rat histamine H3 receptor; expressed in transfected cells
- Sequence (Q9QYN8 whole entry): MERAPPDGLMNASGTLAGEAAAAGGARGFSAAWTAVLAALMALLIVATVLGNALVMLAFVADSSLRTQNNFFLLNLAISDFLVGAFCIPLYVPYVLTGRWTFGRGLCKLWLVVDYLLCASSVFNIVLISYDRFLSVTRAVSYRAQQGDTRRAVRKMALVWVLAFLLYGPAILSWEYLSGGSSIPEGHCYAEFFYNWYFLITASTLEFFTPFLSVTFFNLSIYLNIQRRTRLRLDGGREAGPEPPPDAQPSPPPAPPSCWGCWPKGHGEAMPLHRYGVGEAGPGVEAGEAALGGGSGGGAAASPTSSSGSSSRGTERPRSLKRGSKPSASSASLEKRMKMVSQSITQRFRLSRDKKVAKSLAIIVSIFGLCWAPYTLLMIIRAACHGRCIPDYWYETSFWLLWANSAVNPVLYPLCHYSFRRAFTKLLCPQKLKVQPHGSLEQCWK
- Run Description: Rat H3 radioligand binding ([3H]-N-alpha-methylhistamine, SPA)
- Conditions: membranes of CHO-A3 cells expressing rat H3; [3H]-N-alpha-methylhistamine; read-out: Rat H3 Ki
pKi: −log10 of the molar value.
Quantity: pKi

As a guide, the following entries are already answered.
O=C(CN1CCOCC1)c1ccc(OCCCN2CCCC2)cc1	6.00 to 6.30
C[C@@H]1CCCN1CCCOc1cccc(C(=O)CN2CCN(C(=O)c3ccccc3)CC2)c1	6.00 to 6.30
C[C@@H]1CCCN1CCCOc1ccc(C(=O)CN2CCOC(c3ccccc3)C2)cc1 (stereo partly drawn)	7.00 to 10.00

[ask] Could you tell me which pKi is on file for O=C1CN(CCCOc2ccc(C(=O)CN3CCOCC3)cc2)CCN1 ?
[reply] < 6.00

[ask] For CC1CCC(C)N1CC(=O)c1ccc(OCCCN2CCC[C@H]2C)cc1 (stereo partly drawn) , what is its reported pKi?
[reply] 7.00 to 10.00

[ask] Recorded pKi for Cc1cc(C(=O)CN2CCC(F)(F)CC2)cc(C)c1OCCCN1CCC[C@H]1C , please?
[reply] < 6.00
